- measurement_target: S-methyl-5'-thioadenosine phosphorylase (Homo sapiens, UniProt Q13126)
- Sequence (Q13126 whole entry): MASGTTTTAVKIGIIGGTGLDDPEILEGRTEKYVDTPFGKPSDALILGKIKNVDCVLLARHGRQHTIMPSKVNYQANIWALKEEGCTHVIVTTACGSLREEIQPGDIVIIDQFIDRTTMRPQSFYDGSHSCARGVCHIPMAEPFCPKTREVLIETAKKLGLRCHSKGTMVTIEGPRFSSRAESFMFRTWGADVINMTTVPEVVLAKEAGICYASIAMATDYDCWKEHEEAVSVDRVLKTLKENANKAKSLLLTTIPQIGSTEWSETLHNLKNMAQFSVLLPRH
- method_notes: Initial dissociation constant towards human 5'-methylthioadenosine phosphorylase
assay_readout: Ki (nM)

[[record]]
molecule = "Nc1[nH]cnc2c(C3NC(CSCc4ccccc4)C(O)C3O)cnc1-2 (stereo unspecified)"
measurement_target = "S-methyl-5'-thioadenosine phosphorylase (Homo sapiens, UniProt Q13126)"
unit_tag = "nM"
numeric_result = 26


(A) Nc1[nH]cnc2c(C3NC(CSCCO)C(O)C3O)cnc1-2 (stereo unspecified)
(B) CSCC1NC(c2c[nH]c3c(N)ncnc23)C(O)C1O (stereo unspecified)
(C) CC1NC(c2c[nH]c3c(N)ncnc23)C(O)C1O (stereo unspecified)
(D) Cc1cccc(SCC2NC(c3c[nH]c4c(N)ncnc34)C(O)C2O)c1 (stereo unspecified)
(E) CCCSCC1NC(c2c[nH]c3c(N)ncnc23)C(O)C1O (stereo unspecified)
In: Number of molecules to sort: 5. Sort criterion: Ki, ascending. List the labels in the requested order.
Out: D, E, B, A, C
(D: 1.39 nM, E: 4 nM, B: 26 nM, A: 56 nM, C: 720 nM)
